From: patent US20100120740A1

- experiment-summary: Rate of hydrolysis of test compounds to 4H-furo[3,2-b]pyrrole-5-carboxylic acid in pH 7.4 and 2.0 aqueous solutions
- Type: physicochemical
- settings: 0.05 M sodium phosphate buffer pH 7.4, 0.013 mg/mL, over 6 hours, HPLC
quantity-measured: Hydrolysis rate at pH 7.4

// below: answered compounds
| compound | Hydrolysis rate at pH 7.4 |
| --- | --- |
| CC(OC(=O)OC1CCCCC1)OC(=O)c1cc2occc2[nH]1 (centres unmarked) [Compound 36b] | 0.21%/hr |
| CN(C)C(=O)COC(=O)c1cc2occc2[nH]1 | No hydrolysis |
| O=C(OCCN1CCOCC1)c1cc2occc2[nH]1 | No hydrolysis |
| O=C(OCC(=O)N1CCC1)c1cc2occc2[nH]1 [Compound 22a] | No hydrolysis |

Query compound follows.
-- ask // returns reported Hydrolysis rate at pH 7.4 for input O=C(OCC1CCCO1)c1cc2occc2[nH]1 (centres unmarked)
-- reply No hydrolysis
